# Read-out: Matrix Metallopeptidase 1 (MMP1), MMP1 (gene 4312)
# test details: BSK_BE3C_MMP1: BioMAP Diversity Plus: BE3C Assay for Matrix Metallopeptidase 1 (MMP1) Biomarker Activity (AID 2283024)
# protocol conditions: primary human bronchial epithelial cells; actives raise or lower the signal
The source made the active and inactive calls. Rule for the calls: active = hit-call score of the fitted dose curve at least 0.9, where 1 is the maximum; inactive = score below 0.9.
Choose one outcome from this list and give only that: Yes (active), No (inactive)

Could you check what this test reported for CC(O)CC(C)(C)O (stereo unspecified) ?
No

Write down the call the test reported for this compound. Item: C[C@]12CC[C@@H]3c4ccc(O)cc4CC[C@H]3[C@@H]1CCC2=O
Yes

Record lookup: outcome of this test for Cc1cccc2ccccc12 ?
No

For Oc1ccccc1 , which call appears in the assay record?
No

Which outcome was entered for the compound CCOC(=O)O[C@H](C)OC(=O)c1ccc2c(c1)cc(C(=O)NC1CCN(C(C)C)CC1)n2Cc1cc(-c2ccc(Cl)s2)on1 in this test?
Yes

New cases:
What outcome does the record of this test show for CCCCCCCCCC(=O)O ?
No

---

# Read-out: Matrix Metallopeptidase 1 (MMP1), MMP1 (gene 4312)
# test details: BSK_hDFCGF_MMP1: BioMAP Diversity Plus: hDFCGF Assay for Matrix Metallopeptidase 1 (MMP1) Biomarker Activity (AID 2283064)
# protocol conditions: primary human foreskin fibroblasts; actives raise or lower the signal
Activity calls are given as the source filed them. Rule for the calls: active = hit-call score of the fitted dose curve at least 0.9, where 1 is the maximum; inactive = score below 0.9.
experimental endpoint: AC50

Quick note, AC50 for CCCOC(=O)c1cc(O)c(O)c(O)c1 landed at inactive

Record summary for CCN(CC)C(=O)c1cc(S(=O)(=O)Cc2ccccc2)c(N2CCC(c3ccccc3)CC2)cc1N(CC)CCN(C)C : reported AC50 = inactive

Looking up CCOC(=O)O[C@H](C)OC(=O)c1ccc2c(c1)cc(C(=O)NC1CCN(C(C)C)CC1)n2Cc1cc(-c2ccc(Cl)s2)on1 , I see its AC50 listed as 6.2 µM (active)

// field: AC50; key: CCCCCCCCCCCC[N+](C)(C)C ; value = 4.94 µM (active)

Notebook: O=C(O)c1ccccc1-n1cc(C(=O)O)c(=O)c2cc(Nc3c(F)cc(F)cc3Cl)c(Cl)cc21 , AC50 read as inactive

What the record says about Cc1cn([C@H]2C[C@H](N=[N+]=[N-])[C@@H](CO)O2)c(=O)[nH]c1=O : AC50 is inactive

The reported AC50 of the molecule Oc1ccc2ccccc2c1 was inactive

Form: molecule = CC/C(=C(/CC)c1ccc(O)cc1)c1ccc(O)cc1 ; AC50 = 28.6 µM (active)

Kindly note the recorded AC50 for CN(C)c1ccc(C(=C2C=CC(=[N+](C)C)C=C2)c2ccc(N(C)C)cc2)cc1 , which is 5.45 µM (active)

Short answer for O=c1c(-c2ccc(O)cc2)coc2cc(O)cc(O)c12 : AC50 was 15.1 µM (active)

New cases:
// AC50 value for CC(C)(O)c1ccc(CNC(=O)c2cccnc2Oc2ccc3nonc3c2)cc1 : inactive

Briefly, AC50 measured for CCCCCCCCCCCCO : 31 µM (active)

Per the records, this molecule ( Cc1ccc2oc(CN(Cc3ccccc3)C(=O)Nc3c(F)cc(F)cc3F)c(-c3ccc(Cl)cc3)c2c1 ) has AC50 equal to inactive

CN1C(=O)CC[C@H]1c1cccnc1 has a reported AC50 of inactive

CCO[Si](CCCNC(N)=O)(OCC)OCC has a reported AC50 of inactive
